tested on: Bacillus subtilis; test: Antibacterial activity against Bacillus subtilis at 50 ug/ml after 24 hr by agar diffusion cup plate method; format: functional; conditions: read-out: DIZ
PROPERTY: zone of inhibition at 50 µg/mL
Returns: string containing the number followed by the unit.

Here are 4 compounds together with their reported answers.
- O=C1CS/C(=N/c2ccccc2)N1Nc1ccc([N+](=O)[O-])cc1[N+](=O)[O-]: 12 mm
- Cc1cc(C)n(-c2ccc([N+](=O)[O-])cc2[N+](=O)[O-])n1: 10.4 mm
- CCn1cc(C(=O)O)c(=O)c2cc(F)c(N3CCNCC3)cc21 [NORFLOXACIN]: 31.3 mm
- CC(=O)N1C(=O)CC(=O)N1c1ccc([N+](=O)[O-])cc1[N+](=O)[O-]: 10.2 mm

Shifting focus to the compound that follows.
Supply zone of inhibition at 50 µg/mL value. Item: O=[N+]([O-])c1ccc(NNC(=S)Nc2ccccc2)c([N+](=O)[O-])c1
10.2 mm

###

system: Candida albicans; test: Antifungal activity against Candida albicans at 50 ug/ml after 48 to 72 hr by agar diffusion cup-plate method; assay type: functional; settings: read-out: DIZ
# cutoff 10 mm applies to zone of inhibition at 50 µg/mL; >= gives Satisfied, < gives Not satisfied

• O=C1CC(=O)N(c2ccc([N+](=O)[O-])cc2[N+](=O)[O-])N1 = Not satisfied
• O=C1CS/C(=N/c2ccccc2)N1Nc1ccc([N+](=O)[O-])cc1[N+](=O)[O-] = Satisfied
• CC(=O)N1C(=O)CC(=O)N1c1ccc([N+](=O)[O-])cc1[N+](=O)[O-] = Satisfied

Then this compound:
Assess whether reported zone of inhibition at 50 µg/mL for O=C1CC(CCl)=NN1c1ccc([N+](=O)[O-])cc1[N+](=O)[O-] sits at 10 mm or higher.
Satisfied

Data origin: ChEMBL document CHEMBL3045717
